These entries and their values trace back to patent US6730672B2.

# molecule, melting point
records = [
    ("O=C(CNS(=O)(=O)c1ccc2ccccc2c1)NCCNC(=O)C1CCN(c2ccncc2)CC1", "107 to 109 °C"),
    ("O=C(O)C1CN(S(=O)(=O)c2ccc3cc(Cl)ccc3c2)CCN1C(=O)C1CCN(c2ccncc2)CC1 (stereo not shown)", "215 to 220 °C (dec.)"),
    ("O=C(CNS(=O)(=O)c1ccc2ccccc2c1)N[C@@H](CC(=O)N1CCN(c2ccncc2)CC1)C(=O)N1CCCCC1", "201 to 203 °C"),
    ("O=C(CNS(=O)(=O)c1ccc2ccccc2c1)NCC(NC(=O)C1CCN(c2ccncc2)CC1)C(=O)N1CCCCC1 (stereo not shown)", "200 to 202 °C"),
    ("CCOC(=O)C1CN(S(=O)(=O)c2ccc3cc(Br)ccc3c2)CCN1C(=O)C1CCN(c2ccncc2)CC1 (stereo not shown)", "117 to 121 °C"),
    ("O=C(C1CCN(c2ccncc2)CC1)N1CCN(S(=O)(=O)c2ccc3ccccc3c2)CC1", "172 to 173 °C"),
    ("Cc1ccc(-c2ccc(S(=O)(=O)N3CCN(C(=O)C4CCN(c5ccncc5)CC4)CC3)cc2)cc1", "213 to 217 °C"),
]
